Biological target: SHV Asn276Asp β-lactamase (Klebsiella pneumoniae, UniProt P0AD64, N270D)
Test: Direct competition assay against nitrocefin
Conditions: Ki, Asn276Asp, competition with NCF, corrected for NCF affinity
Quantity measured: pKi
pKi is defined as minus the log10 of a concentration measured in mol/L.

Incoming: I have this compound here, C[C@@H](O)[C@H]1C(=O)N2C(C(=O)O)=C(S[C@@H]3CN[C@H](C(=O)N(C)C)C3)[C@H](C)[C@H]12 , and I need its recorded pKi.
Outgoing: 2.85
